# MEASUREMENT_TARGET: Cannabinoid receptor 2 (Homo sapiens)
# EXPERIMENTAL_PROTOCOL: Agonist activity at CB2 receptor (unknown origin) expressed in CHO cells co-expressing G-alpha16 incubated for 24 hrs by fluo-4 AM dye based whole-cell calcium mobilization assay
ASSAY_METRIC: pEC50
Recall that pEC50 is obtained by taking minus log10 of the concentration measured in molar.

Example cases with answers are listed next.
Problem: // fetch pEC50 given entry CCCCCn1c(C)c(Br)c(=O)n(CC(=O)NC(C)(C)C)c1=O
Result: 7.31

Problem: // fetch pEC50 given entry CCCCCn1c(=O)n(CC(=O)NC(C)(C)C)c(=O)c2cccc(C)c21
Result: 7.56

Problem: // fetch pEC50 given entry CCCCn1c(=O)n(CC(=O)NC(C)(C)C)c(=O)c2cccc(C)c21
Result: 7.42

Problem: // fetch pEC50 given entry Cc1cccc2c(=O)n(CC(=O)NC(C)(C)C)c(=O)n(CC3CC3)c12
Result: 6.51

Problem: // fetch pEC50 given entry CCCCCn1c(=O)n(CC(=O)NC(C)(C)C)c(=O)c2ccccc21
Result: 7.06

For the next question, use this molecule.
Problem: // fetch pEC50 given entry CCCCCn1c(=O)n(CC(=O)NC2CC2)c(=O)c2ccccc21
Result: 6.13

====

Listed below: EC50 values for each entry.
# MEASUREMENT_TARGET: Cannabinoid receptor 2 (Homo sapiens)
# EXPERIMENTAL_PROTOCOL: Agonist activity at CB2 receptor (unknown origin) expressed in CHO cells co-expressing G-alpha16 incubated for 24 hrs by fluo-4 AM dye based whole-cell calcium mobilization assay
Report the value in nM with no unit label.

Example cases with answers are listed next.
Problem: # return EC50 for CCCCCn1c(=O)n(CC(=O)NC(C)(C)C)c(=O)c2cccc(Cl)c21 , test system: Cannabinoid receptor 2 (Homo sapiens)
Result: 52.7

Problem: # return EC50 for C=CCCn1c(=O)n(CC(=O)NC(C)(C)C)c(=O)c2c(C)cccc21 , test system: Cannabinoid receptor 2 (Homo sapiens)
Result: 46.8

Problem: # return EC50 for C=CCCn1c(=O)n(CC(=O)NC(C)(C)C)c(=O)c2cccc(C)c21 , test system: Cannabinoid receptor 2 (Homo sapiens)
Result: 99.6

Problem: # return EC50 for CCCn1c(=O)n(CC(=O)NC(C)(C)C)c(=O)c2cccc(C)c21 , test system: Cannabinoid receptor 2 (Homo sapiens)
Result: 407

Problem: # return EC50 for CCCCCn1c(C)c(C2CC2)c(=O)n(CC(=O)NC(C)(C)C)c1=O , test system: Cannabinoid receptor 2 (Homo sapiens)
Result: 270

Problem: # return EC50 for CCCCCn1c(=O)n(CC(=O)NC(C)(C)C)c(=O)c2c(C)cccc21 , test system: Cannabinoid receptor 2 (Homo sapiens)
Result: 14

Problem: # return EC50 for CCCCCn1c(=O)n(CC(=O)NC2CCCCC2)c(=O)c2c(C)cccc21 , test system: Cannabinoid receptor 2 (Homo sapiens)
Result: 395

Problem: # return EC50 for CCCCCn1c(=O)n(CC(=O)NCCCC)c(=O)c2c(Cl)cccc21 , test system: Cannabinoid receptor 2 (Homo sapiens)
Result: 147

Problem: # return EC50 for CCCCCn1c(=O)n(CC(=O)NCCCC)c(=O)c2c(C)cccc21 , test system: Cannabinoid receptor 2 (Homo sapiens)
Result: 468

Problem: # return EC50 for CCCn1c(=O)n(CC(=O)NC(C)(C)C)c(=O)c2ccccc21 , test system: Cannabinoid receptor 2 (Homo sapiens)
Result: 1420

For the next question, use this compound.
Problem: # return EC50 for CCCCCn1c(C)cc(=O)n(CC(=O)NC(C)(C)C)c1=O , test system: Cannabinoid receptor 2 (Homo sapiens)
Result: 722

====

# MEASUREMENT_TARGET: Cannabinoid receptor 2 (Homo sapiens, UniProt P34972)
# Sequence (P34972 whole entry): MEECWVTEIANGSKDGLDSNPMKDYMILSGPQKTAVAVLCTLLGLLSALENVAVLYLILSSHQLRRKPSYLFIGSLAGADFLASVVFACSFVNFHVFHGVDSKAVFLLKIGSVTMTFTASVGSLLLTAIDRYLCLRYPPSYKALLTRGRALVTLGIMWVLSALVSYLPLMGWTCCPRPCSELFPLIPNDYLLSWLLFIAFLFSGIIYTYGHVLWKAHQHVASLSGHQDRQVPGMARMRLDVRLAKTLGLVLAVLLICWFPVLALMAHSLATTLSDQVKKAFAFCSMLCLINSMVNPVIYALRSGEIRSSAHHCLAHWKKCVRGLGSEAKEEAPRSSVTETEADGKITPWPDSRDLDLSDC
# EXPERIMENTAL_PROTOCOL: Agonist activity at CB2 receptor (unknown origin) expressed in CHO cells co-expressing G-alpha16 incubated for 24 hrs by fluo-4 AM dye based whole-cell calcium mobilization assay
pEC50: −log10 of the molar value.
ASSAY_METRIC: pEC50

Example cases with answers are listed next.
Problem: // fetch pEC50 given entry CCCCCn1c(=O)n(CC(=O)NC2CCCCC2)c(=O)c2c(OC)cccc21
Result: < 5.00

Problem: // fetch pEC50 given entry CCCCCn1c(C)cc(=O)n(CC(=O)NC2CCCCC2)c1=O
Result: < 5.00

Problem: // fetch pEC50 given entry CCCCCn1c(=O)n(CC(=O)NC(C)(C)C)c(=O)c2cccc(OC)c21
Result: < 5.00

Problem: // fetch pEC50 given entry CCCCCn1c(=O)n(CC(=O)NC2CCCCC2)c(=O)c2ccccc21
Result: < 5.00

Problem: // fetch pEC50 given entry CCCCCn1c(C)cc(=O)n(CC(=O)NCCCC)c1=O
Result: < 5.00

Problem: // fetch pEC50 given entry CCCCCn1c(C)c(-c2cccc(C)c2)c(=O)n(CC(=O)NC(C)(C)C)c1=O
Result: < 5.00

Further cases:
Problem: // fetch pEC50 given entry CCCCCn1c(=O)n(CC(=O)NC2CCCCC2)c(=O)c2c(Cl)cccc21
Result: < 5.00

Problem: // fetch pEC50 given entry CCCCCn1c(=O)n(CC(=O)NCCCC)c(=O)c2c(OC)cccc21
Result: < 5.00
